tested.on: T1, EsCas13d, nuclease-dead (Eubacterium siraeum, UniProt B0MS50, R295A;H300A;R849A;H854A)
T1 sequence: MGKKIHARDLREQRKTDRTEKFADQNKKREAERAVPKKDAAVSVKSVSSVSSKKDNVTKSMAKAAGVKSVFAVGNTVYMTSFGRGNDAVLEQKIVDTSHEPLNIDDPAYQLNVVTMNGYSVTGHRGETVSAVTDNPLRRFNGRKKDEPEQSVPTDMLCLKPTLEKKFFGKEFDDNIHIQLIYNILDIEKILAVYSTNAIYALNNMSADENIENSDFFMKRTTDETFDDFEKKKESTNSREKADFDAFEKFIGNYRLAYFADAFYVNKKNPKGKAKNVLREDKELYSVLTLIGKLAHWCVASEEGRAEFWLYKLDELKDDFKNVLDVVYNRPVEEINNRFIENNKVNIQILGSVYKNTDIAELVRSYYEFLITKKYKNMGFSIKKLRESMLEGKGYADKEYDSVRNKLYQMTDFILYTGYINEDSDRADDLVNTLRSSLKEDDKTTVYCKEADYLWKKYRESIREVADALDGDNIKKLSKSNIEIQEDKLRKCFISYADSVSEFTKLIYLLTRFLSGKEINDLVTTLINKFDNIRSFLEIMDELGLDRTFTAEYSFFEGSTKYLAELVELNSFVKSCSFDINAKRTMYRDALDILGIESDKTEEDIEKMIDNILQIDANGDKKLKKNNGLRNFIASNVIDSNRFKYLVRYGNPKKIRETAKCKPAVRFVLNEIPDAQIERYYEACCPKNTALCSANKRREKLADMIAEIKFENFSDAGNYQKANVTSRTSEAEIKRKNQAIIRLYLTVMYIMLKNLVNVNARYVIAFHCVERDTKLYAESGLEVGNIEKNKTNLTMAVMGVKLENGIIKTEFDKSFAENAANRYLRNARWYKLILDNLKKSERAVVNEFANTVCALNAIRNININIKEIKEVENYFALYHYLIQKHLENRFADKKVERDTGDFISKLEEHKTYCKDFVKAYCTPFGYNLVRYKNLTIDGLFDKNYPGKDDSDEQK
protocol: crRNA (strand 1, pre-loaded); Mg2+; 40 mM Tris-HCl pH 7.5, 150 mM NaCl, 6 mM MgCl2, 1 mM DTT, 0.1% Tween-20, 0.2 mg/ml BSA; 25 C; 10 min per concentration, then washed
reported.conditions: tags: His6-TwinStrep-SUMO cleaved; N-terminal SNAP kept (SNAP-Surface 488); label: 3' end held by stalled T7 RNA polymerase
pKd: −log10 of the molar value.
measurement.label: pKd

1) target 1 U8G,A20C (mixed) RNA 1: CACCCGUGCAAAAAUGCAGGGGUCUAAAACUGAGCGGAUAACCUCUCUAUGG RNA 2: GGGAAUGGAUCCACAUCUACGAAUUCGUACCCUAGAGAGGUUAGCCGCUCACCGAGAUCGGAAGAGCACACGU ... 7.04
2) target 1 U3G,G15C (mixed) RNA 1: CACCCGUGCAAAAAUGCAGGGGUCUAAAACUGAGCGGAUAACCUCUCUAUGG RNA 2: GGGAAUGGAUCCACAUCUACGAAUUCGUACCAUAGACAGGUUAUCCGCGCACCGAGAUCGGAAGAGCACACGU ... 7.47
